Cited source: patent US8881823B2

assay: Active toxicity test of GLDA on Daphnia magna (OECD 202); format: in vivo; details: in vivo, OECD 202, 48-h
PROPERTY NAME: EC50 at 48 h

Query: Bench note: what EC50 at 48 h did `O=C(O)CC[C@@H](C(=O)O)N(CC(=O)O)CC(=O)O` show?
Response: > 100 µg/mL

====

assay: Dissolution and miscibility tests in sodium bromide brines; format: physicochemical; details: 20% v/v breaker in 12.5 lb/gal NaBr, 2.5 g BARACARB 5, 150° F., 16 hours
PROPERTY NAME: Final Weight of BARACARB 5 (g)
Numbers only, in g.

Query: Item under review: `O=C(O)CC[C@@H](C(=O)O)N(CC(=O)O)CC(=O)O` . Reported Final Weight of BARACARB 5?
Response: 1.78

====

design: species or system Alga; settings: alga, in vivo
PROPERTY NAME: EC50 at 72 h

Query: Look at this molecule and give its reported EC50 at 72 h. `O=C(O)CC[C@@H](C(=O)O)N(CC(=O)O)CC(=O)O`
Response: > 100 µg/mL

====

Assign Final Weight of BARACARB 5, g to each entry below.
test: Calcite dissolving capacity of breaker systems; type: physicochemical; details: 2.5 g BARACARB 5 in 50 mL test fluid, one hour
Answers are plain numbers, in g.

{"columns": ["COMPOUND", "Final Weight of BARACARB 5, g (g)"],
 "data": [
  ["O=C([O-])CC(NC(CC(=O)[O-])C(=O)[O-])C(=O)[O-].[Na+].[Na+].[Na+].[Na+] (stereo not shown) [Iminodisuccinate, sodium salt]", 2.37],
  ["O=C(O)CN(CCOCCOCCN(CC(=O)O)CC(=O)O)CC(=O)O", 2.32],
  ["N.N.O=C(O)CN(CCN(CC(=O)O)CC(=O)O)CC(=O)O [EDTA ammonium salt, reference compound]", 1.54]
]}

Consider the record given below.
Query: State the recorded Final Weight of BARACARB 5, g for this entry: `O=C(O)CC[C@@H](C(=O)O)N(CC(=O)O)CC(=O)O`
Response: 2.01

====

test: Miscibility and pH of breaker systems in fresh water; type: physicochemical; conditions: breaker system in fresh water, 150° F. for 16 hours
PROPERTY NAME: pH
Give bare numbers.

Example entries and their recorded answers appear below.
{"columns": ["COMPOUND", "pH"],
 "data": [
  ["N.N.O=C(O)CN(CCN(CC(=O)O)CC(=O)O)CC(=O)O [EDTA ammonium salt, reference compound]", 4.77],
  ["O=C([O-])CC(NC(CC(=O)[O-])C(=O)[O-])C(=O)[O-].[Na+].[Na+].[Na+].[Na+] (centres unmarked) [Iminodisuccinate, sodium salt]", 11.3],
  ["Cl.NC(N)=O [Synthetic acid (HCl salt of urea), HCl salt of urea]", 0.88]
]}

Attention now turns to another entry.
Query: Looking for the measured pH of `O=C(O)CN(CCOCCOCCN(CC(=O)O)CC(=O)O)CC(=O)O` , can you help?
Response: 11

====

test: Calcite dissolving capacity of breaker systems; assay type: physicochemical; conditions: 2.5 g BARACARB 5 in 50 mL test fluid, one hour
PROPERTY NAME: % Carbonate Complexed or Dissolved (%)
Answers are plain numbers, in %.

{"columns": ["COMPOUND", "UNITS OF MEASURE", "ENDPOINT RESULT"],
 "data": [
  ["O=C(O)CC[C@@H](C(=O)O)N(CC(=O)O)CC(=O)O", "%", 19.6]
]}

Consider the following items and state reported % Carbonate Complexed or Dissolved for each.
1. O=C([O-])CC(NC(CC(=O)[O-])C(=O)[O-])C(=O)[O-].[Na+].[Na+].[Na+].[Na+] (stereo not shown) [Iminodisuccinate, sodium salt]
2. N.N.O=C(O)CN(CCN(CC(=O)O)CC(=O)O)CC(=O)O [EDTA ammonium salt, reference compound]
3. O=C(O)CN(CCOCCOCCN(CC(=O)O)CC(=O)O)CC(=O)O

Response:
[5.2, 38.4, 9.28]

====

assay: Active toxicity test of GLDA on Rainbow trout (OECD 203); format: in vivo, Oncorhynchus mykiss; settings: rainbow trout (Oncorhynchus mykiss), in vivo, OECD 203, 96-h
PROPERTY NAME: LC50 at 96 h

Query: I would be grateful if you could share the reported LC50 at 96 h for `O=C(O)CC[C@@H](C(=O)O)N(CC(=O)O)CC(=O)O` .
Response: > 100 µg/mL
